Target system: Serine/threonine-protein kinase 3 (Homo sapiens)
Run parameters: at 10 µM
Assay readout: residual activity (%)
Number only, in %; omit the unit.

Examples with answers:
compound_string=CN(C)CCCn1cc(C2=C(c3c[nH]c4ccccc34)C(=O)NC2=O)c2ccccc21 target_system="Serine/threonine-protein kinase 3 (Homo sapiens)" reading_unit=% recorded_measurement=17
compound_string=O=C1Nc2cc(Br)ccc2/C1=C1/Nc2ccccc2/C1=N\O target_system="Serine/threonine-protein kinase 3 (Homo sapiens)" reading_unit=% recorded_measurement=5
compound_string=Ic1cccc(CSc2nnc(-c3ccncc3)o2)c1 target_system="Serine/threonine-protein kinase 3 (Homo sapiens)" reading_unit=% recorded_measurement=15

What measured residual activity goes with `Oc1c2ccccc2c2c3c(cccc13)N=N2` ?
10

For `C[C@@H](N)[C@H]1CC[C@H](C(=O)Nc2ccncc2)CC1` then?
105

Queued: `O=C1NC(=O)c2c1c1c3ccccc3[nH]c1c1[nH]c3cc(Br)ccc3c21`
62

====

Target system: Mitogen-activated protein kinase kinase kinase 7 (Homo sapiens)
Run parameters: at 10 µM
Below is a list of entries, each paired with its recorded residual activity value.
Be sure to follow the number with its unit.

As a guide, the following entries are already answered.
compound_string=CC(C)n1cnc2c(NCc3ccccc3)nc(NCCCO)nc21 target_system="Mitogen-activated protein kinase kinase kinase 7 (Homo sapiens)" assay_readout="residual activity" recorded_measurement=92%
compound_string=CC[n+]1c(/C=C/N(C)c2ccccc2)n(-c2ccccc2)c2ccc(-c3nc4ccccc4s3)cc21 target_system="Mitogen-activated protein kinase kinase kinase 7 (Homo sapiens)" assay_readout="residual activity" recorded_measurement=102%
compound_string=O=C1NC(=O)c2c1c1c3ccccc3[nH]c1c1[nH]c3cc(Br)ccc3c21 target_system="Mitogen-activated protein kinase kinase kinase 7 (Homo sapiens)" assay_readout="residual activity" recorded_measurement=84%
compound_string=CO[C@H]1[C@@H](OC)C[C@H](C)[C@@H](OC)C2=CC(=O)C=C(NC(=O)/C(C)=C/C=C/[C@H](OC)[C@@H](OC(N)=O)/C(C)=C/[C@@H]1C)C2=O target_system="Mitogen-activated protein kinase kinase kinase 7 (Homo sapiens)" assay_readout="residual activity" recorded_measurement=94%
compound_string=CC#CC(=O)Nc1cc2c(Nc3ccc(F)c(Cl)c3)ncnc2cn1 target_system="Mitogen-activated protein kinase kinase kinase 7 (Homo sapiens)" assay_readout="residual activity" recorded_measurement=96%

GET /values?readout=residual activity&item= `c1ccc(-c2n[nH]c3c2oc2ccccc23)cc1`
100%

Check `COc1cc2ncnc(Nc3ccc(O)c(Br)c3)c2cc1OC` too.
62%

Continue with `N#Cc1cnc2cnc(NCc3cccnc3)cc2c1Nc1ccc(F)c(Cl)c1`
87%

// query: `Cc1ccc(S(=O)(=O)/C=C/C#N)cc1`
88%

====

Target system: Cyclin-dependent kinase 5/CDK5 activator 1 (Homo sapiens) (UniProt Q00535+Q15078)
Sequence (Q00535 whole entry): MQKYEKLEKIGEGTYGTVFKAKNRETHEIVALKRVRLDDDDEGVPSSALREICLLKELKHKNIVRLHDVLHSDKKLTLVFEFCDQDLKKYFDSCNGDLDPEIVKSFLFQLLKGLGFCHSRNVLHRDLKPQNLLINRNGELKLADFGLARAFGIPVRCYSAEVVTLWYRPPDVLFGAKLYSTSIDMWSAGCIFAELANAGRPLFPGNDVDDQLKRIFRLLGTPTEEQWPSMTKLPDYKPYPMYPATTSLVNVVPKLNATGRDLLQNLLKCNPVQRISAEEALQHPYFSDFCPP
Sequence (Q15078 99-307 partner limits assumed): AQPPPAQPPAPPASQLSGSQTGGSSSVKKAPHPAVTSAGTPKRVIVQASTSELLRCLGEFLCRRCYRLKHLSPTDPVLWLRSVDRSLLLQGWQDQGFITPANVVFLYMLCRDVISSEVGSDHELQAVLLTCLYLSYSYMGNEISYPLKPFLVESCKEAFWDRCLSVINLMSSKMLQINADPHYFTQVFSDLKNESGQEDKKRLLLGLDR
Run parameters: at 1 µM
# key: entry, value: residual activity
Number only, in %; omit the unit.

Check out these entries, answers already filled in.
compound_string=O=c1cc(-c2cccc3c2Sc2ccccc2S3)oc(N2CCOCC2)c1 target_system="Cyclin-dependent kinase 5/CDK5 activator 1 (Homo sapiens) (UniProt Q00535+Q15078)" assay_readout="residual activity" recorded_measurement=95
compound_string=Cc1nc2cc3nc(-c4cccs4)cnc3cc2n1C target_system="Cyclin-dependent kinase 5/CDK5 activator 1 (Homo sapiens) (UniProt Q00535+Q15078)" assay_readout="residual activity" recorded_measurement=91
compound_string=O=C(Nc1cccc(Nc2cc(Nc3cccc(C(F)(F)F)c3)ncn2)c1)C1CC1 target_system="Cyclin-dependent kinase 5/CDK5 activator 1 (Homo sapiens) (UniProt Q00535+Q15078)" assay_readout="residual activity" recorded_measurement=89
compound_string=COc1ccc(CNc2nc(N(CCO)CCO)nc3c2ncn3C(C)C)cc1 target_system="Cyclin-dependent kinase 5/CDK5 activator 1 (Homo sapiens) (UniProt Q00535+Q15078)" assay_readout="residual activity" recorded_measurement=11
compound_string=COc1cc2ncnc(Nc3ccc(O)c(Br)c3)c2cc1OC target_system="Cyclin-dependent kinase 5/CDK5 activator 1 (Homo sapiens) (UniProt Q00535+Q15078)" assay_readout="residual activity" recorded_measurement=84

# get_value(readout='residual activity', item= `CN(C)c1ccc(/C=C2\C(=O)Nc3ccccc32)cc1` )
106
